testedOn: Y188L mutant RT (HIV-1 RT) (Human immunodeficiency virus type 1 group M subtype B, UniProt P03366, Y787L)
Construct: mutations that occur in the reverse transcriptase segment of the pol gene
protocol: biochemical
measurementConditions: IC50 Y188L (nM)
readoutLabel: IC50

For orientation, consider the following solved cases.
compound | IC50
CCN1c2ncc(CCOc3ccc(/C=C(\C)C(=O)O)c4ccccc34)cc2C(=O)N(C)c2cccnc21 | > 1000 nM
CCN1c2ncc(CCOc3ccc(CC(N)=O)c4ccccc34)cc2C(=O)N(C)c2cccnc21 | > 1000 nM
CCN1c2ncc(CCOc3ccc(CC(=O)O)c4ccccc34)cc2C(=O)Nc2c(C)cc(Cl)nc21 | > 1000 nM

Give the measured IC50 of `CCN1c2ncc(CCOc3ccc(CCC(=O)O)c4ccccc34)cc2C(=O)N(C)c2ccc(F)nc21` .
> 1000 nM

And then CCN1c2ncc(CCOc3ccc(CC(C)C(=O)O)c4ccccc34)cc2C(=O)N(C)c2ccc(F)nc21 (stereo not drawn) , what is it?
> 1000 nM

* * *

testedOn: WT RT (HIV-1 RT) (Human immunodeficiency virus type 1 group M subtype B)
Construct: mutations that occur in the reverse transcriptase segment of the pol gene
protocol: biochemical
pIC50: −log10 of the molar value.
readoutLabel: pIC50

molecule | testedOn | pIC50
CCN1c2ncc(CCOc3ccc(C(C)C(=O)O)c4ccccc34)cc2C(=O)N(C)c2cccnc21 (stereo not shown) | WT RT (HIV-1 RT) (Human immunodeficiency virus type 1 group M subtype B) | > 7.00
CCN1c2ncc(CCOc3ccc4cc(CC(=O)NN)ccc4c3)cc2C(=O)N(C)c2cccnc21 | WT RT (HIV-1 RT) (Human immunodeficiency virus type 1 group M subtype B) | > 7.00
CCN1c2ncc(CCOc3ccc(CC(=O)NN)c4ccccc34)cc2C(=O)N(C)c2ccc(Cl)nc21 | WT RT (HIV-1 RT) (Human immunodeficiency virus type 1 group M subtype B) | > 7.00

Let us move to another entry and its pIC50.
Give the measured pIC50 of CCN1c2ncc(CCOc3ccc(CC(C)C(=O)O)c4ccccc34)cc2C(=O)N(C)c2ccc(Cl)nc21 (stereo not shown) .
> 7.00

* * *

testedOn: K103N/Y181C double mutant RT (HIV-1 RT) (Human immunodeficiency virus type 1 group M subtype B, UniProt P03366, K702N/Y780C)
Construct: mutations that occur in the reverse transcriptase segment of the pol gene
protocol: biochemical
Excerpt: Based upon testing of these compounds, as described below, it is known that they inhibit the RNA-dependent DNA polymerase activity of HIV-1 RT. […] Utilising the Reverse Transcriptase (RT) Assay described below, compounds can be tested for their ability to inhibit the RNA-dependent DNA polymerase activity of HIV-1 RT. Certain specific compounds described in the Examples which appear below, were so tested. The results of this testing appear in Table 4 as IC50 (nM) and Table 5 as EC50 (nM). […]
pIC50: −log10 of the molar value.
Below, each of the compounds is paired with its reported pIC50 value.

For orientation, consider the following solved cases.
compound | pIC50
CCN1c2ncc(CCOc3ccc(/C=C(\C)C(=O)O)c4ccccc34)cc2C(=O)Nc2c(C)cc(F)nc21 | 6.00 to 7.00
CCN1c2ncc(CCOc3ccc(CCC(=O)O)c4ccccc34)cc2C(=O)N(C)c2ccc(F)nc21 | 6.00 to 7.00
CCN1c2ncc(CCOc3ccc(/C=C(\C)C(=O)O)c4ccccc34)cc2C(=O)N(C)c2ccc(C)nc21 | 6.00 to 7.00

Give the measured pIC50 of `CCN1c2ncc(CCOc3ccc(/C=C(\C)C(=O)O)c4ccccc34)cc2C(=O)Nc2c(C)ccnc21` .
6.00 to 7.00

* * *

testedOn: V106A mutant RT (HIV-1 RT) (Human immunodeficiency virus type 1 group M subtype B, UniProt P03366, V705A)
Construct: mutations that occur in the reverse transcriptase segment of the pol gene
protocol: biochemical
measurementConditions: IC50 V106A (nM)
readoutLabel: IC50

For orientation, consider the following solved cases.
compound | readoutLabel | reading
CCN1c2ncc(CCOc3ccc(/C=C/C(=O)O)c4ccccc34)cc2C(=O)N(C)c2ccc(C)nc21 [Entry 1033] | IC50 | 100 to 1000 nM
CCN1c2ncc(CCOc3ccc(CC(C)C(=O)O)c4ccccc34)cc2C(=O)N(C)c2cccnc21 (stereo not shown) [Entry 1042] | IC50 | > 1000 nM

Give the measured IC50 of CCN1c2ncc(CCOc3ccc4cc(CC(=O)O)ccc4c3)cc2C(=O)N(C)c2cccnc21 [Entry 3004] .
100 to 1000 nM

And then CCN1c2ncc(CCOc3cccc4c(S(N)(=O)=O)cccc34)cc2C(=O)N(C)c2cccnc21 [Entry 2004] , what is it?
100 to 1000 nM

* * *

System: K103N/Y181C (HIV-1 double mutant strain)
protocol: EC50 assay, K103N/Y181C strain
Type: cell-based
measurementConditions: Human immunodeficiency virus 1, read-out: EC50 K103N/Y181C (nM), K103N/Y181C double mutant
readoutLabel: EC50

For orientation, consider the following solved cases.
compound | EC50
CCN1c2ncc(CCOc3ccc(CC(=O)O)c4c3CCCC4)cc2C(=O)N(C)c2ccc(F)nc21 | < 100 nM
CCN1c2ncc(CCOc3ccc(C(C)C(=O)O)c4ccccc34)cc2C(=O)N(C)c2cccnc21 (stereo not drawn) | < 100 nM

Let us move to another entry and its EC50.
Give the measured EC50 of `CCN1c2ncc(CCOc3ccc(/C=C/C(=O)O)c4ccccc34)cc2C(=O)N(C)c2cccnc21` .
< 100 nM

* * *

Test system: WT RT (HIV-1 wild type strain)
protocol: EC50 assay, WT RT strain
Format: cell-based
measurementConditions: wild type; read-out: EC50 WT RT
readoutLabel: EC50

For orientation, consider the following solved cases.
smilesEntry | reading
CCN1c2ncc(CCOc3ccc(CC(=O)O)c4ccccc34)cc2C(=O)N(C)c2cccnc21 | < 100 nM
CCN1c2ncc(CCOc3ccc(CC(=O)NS(C)(=O)=O)c4ccccc34)cc2C(=O)N(C)c2cccnc21 | < 100 nM

Give the measured EC50 of `CCN1c2ncc(CCOc3ccc(CCC(=O)O)c4ccccc34)cc2C(=O)N(C)c2cccnc21` .
< 100 nM

And then `CCN1c2ncc(CCOc3ccc(NC(=O)CCC(=O)O)c4ccccc34)cc2C(=O)N(C)c2cccnc21` , what is it?
< 100 nM

And then `CCN1c2ncc(CCOc3ccc(CCC(=O)NN)c4ccccc34)cc2C(=O)N(C)c2cccnc21` , what is it?
< 100 nM

* * *

Below, each of the compounds is paired with its reported IC50 value.
testedOn: V106A mutant RT (HIV-1 RT) (Human immunodeficiency virus type 1 group M subtype B, UniProt P03366, V705A)
Construct: mutations that occur in the reverse transcriptase segment of the pol gene
protocol: biochemical
measurementConditions: IC50 V106A (nM)

compound | IC50
CCN1c2ncc(CCOc3ccc(C(=O)O)c4c3CCC4)cc2C(=O)N(C)c2ccc(Cl)nc21 | 100 to 1000 nM
CCN1c2ncc(CCOc3ccc(C(=O)O)c4c3CCN(C(=O)N(C)C)C4)cc2C(=O)N(C)c2cccnc21 | 100 to 1000 nM
CCN1c2ncc(CCOc3ccc(CC(C)C(=O)O)c4ccccc34)cc2C(=O)N(C)c2ccc(C)nc21 (stereo not shown) | > 1000 nM
CCN1c2ncc(CCOc3ccc(/C=C(\C)C(=O)O)c4ccccc34)cc2C(=O)N(C)c2ccc(Cl)nc21 | 100 to 1000 nM
CCN1c2ncc(CCOc3ccc(CC(=O)O)c4ccccc34)cc2C(=O)N(C)c2ccc(Cl)nc21 | > 1000 nM
CCN1c2ncc(CCOc3ccc(C(=O)O)c4ccccc34)cc2C(=O)N(C)c2ccc(C)nc21 | > 1000 nM

Let us move to another entry and its IC50.
Give the measured IC50 of CCN1c2ncc(CCOc3ccc(/C=C/C(=O)O)c4ccccc34)cc2C(=O)N(C)c2ccc(C)nc21 [Entry 2017] .
> 1000 nM

* * *

testedOn: V106A mutant RT (HIV-1 RT) (Human immunodeficiency virus type 1 group M subtype B, UniProt P03366, V705A)
Construct: mutations that occur in the reverse transcriptase segment of the pol gene
protocol: biochemical
measurementConditions: IC50 V106A (nM)
readoutLabel: IC50

For orientation, consider the following solved cases.
compound | IC50
CCN1c2ncc(CCOc3ccc(C(C)C(=O)O)c4ccccc34)cc2C(=O)N(C)c2cccnc21 (stereo not drawn) | > 1000 nM
CCN1c2ncc(CCOc3ccc4cc(C(=O)O)ccc4c3)cc2C(=O)N(C)c2cccnc21 | 100 to 1000 nM
CCN1c2ncc(CCOc3ccc(C(=O)O)c4c3CCCC4)cc2C(=O)N(C)c2cccnc21 | > 1000 nM
CCN1c2ncc(CCOc3ccc(C(=O)O)c4c3CCC4)cc2C(=O)N(C)c2cccnc21 | 100 to 1000 nM
CCN1c2ncc(CCOc3ccc(C(=O)O)c4ccccc34)cc2C(=O)N(C)c2ccc(Cl)nc21 | 100 to 1000 nM
CCN1c2ncc(CCOc3ccc(CC(=O)O)c4ccccc34)cc2C(=O)Nc2c(C)cc(Cl)nc21 | 100 to 1000 nM
CCN1c2ncc(CCOc3ccc(CC(=O)O)c4ccccc34)cc2C(=O)N(C)c2ccc(C)nc21 | > 1000 nM
CCN1c2ncc(CCOc3ccc(C(=O)O)c4c3CCN(C(C)=O)C4)cc2C(=O)N(C)c2cccnc21 | > 1000 nM

Give the measured IC50 of `CCN1c2ncc(CCOc3ccc(/C(C)=C/C(=O)O)c4ccccc34)cc2C(=O)N(C)c2cccnc21` .
> 1000 nM

And then `CCN1c2ncc(CCOc3ccc(C(=O)O)c4c3CCN(S(C)(=O)=O)C4)cc2C(=O)N(C)c2cccnc21` , what is it?
> 1000 nM

And then `CCN1c2ncc(CCOc3ccc(NS(C)(=O)=O)c4ccccc34)cc2C(=O)N(C)c2cccnc21` , what is it?
> 1000 nM

And then `CCN1c2ncc(CCOc3ccc(CC(=O)O)c4c3CCCC4)cc2C(=O)N(C)c2ccc(Cl)nc21` , what is it?
100 to 1000 nM

And then `CCN1c2ncc(CCOc3ccc(/C=C/C(=O)O)c4ccccc34)cc2C(=O)Nc2c(C)ccnc21` , what is it?
100 to 1000 nM

And then `CCN1c2ncc(CCOc3ccc(CC(=O)O)c4ccccc34)cc2C(=O)N(C)c2ccc(F)nc21` , what is it?
> 1000 nM

And then `CCN1c2ncc(CCOc3ccc(C(=O)O)c4c3CCN(S(=O)(=O)N(C)C)C4)cc2C(=O)N(C)c2cccnc21` , what is it?
100 to 1000 nM

And then `CCN1c2ncc(CCOc3ccc(CCC(=O)O)c4ccccc34)cc2C(=O)N(C)c2ccc(F)nc21` , what is it?
> 1000 nM

And then `CCN1c2ncc(CCOc3ccc(CCC(=O)O)c4ccccc34)cc2C(=O)N(C)c2cccnc21` , what is it?
> 1000 nM

And then `CCN1c2ncc(CCOc3ccc(/C=C(\C)C(=O)O)c4ccccc34)cc2C(=O)Nc2c(C)cc(F)nc21` , what is it?
100 to 1000 nM

And then `CCN1c2ncc(CCOc3ccc(CC(=O)NN)c4ccccc34)cc2C(=O)N(C)c2cccnc21` , what is it?
100 to 1000 nM
